Attribution: ChEMBL document CHEMBL3580551

- System: Pseudomonas aeruginosa
- experiment_notes: Antimicrobial activity against Pseudomonas aeruginosa ATCC 27853 assessed as inhibition of microbial growth by microbroth dilution assay
- Type: functional
measured_quantity: MIC

INSERT INTO measurements (compound, measured_quantity, result) VALUES
  ('Cc1c(O)cc(O)c2c1C[C@@H](CCCCCC(C)O)OC2=O (stereo partly specified)', 'MIC', '> 100 µg/mL'),
  ('CC(=O)CCCCC[C@@H]1Cc2c(C)c(O)cc(O)c2C(=O)O1', 'MIC', '> 100 µg/mL'),
  ('Cc1c(O)cc(O)c2c1C[C@@H](CCCCCCCO)OC2=O', 'MIC', '> 100 µg/mL'),
  ('Cc1c(O)cc(O)c2c1C[C@@H](CCCCCCC(=O)O)OC2=O', 'MIC', '> 100 µg/mL'),
  ('O=C(O)CCCCCC[C@@H]1Cc2cc(O)cc(O)c2C(=O)O1', 'MIC', '> 100 µg/mL'),
  ('CCCCCCC[C@@H]1Cc2c(C)c(O)cc(O)c2CO1', 'MIC', '> 100 µg/mL');
